Each recorded value in this set is attributed to paper PMC3260189.

# TARGET UNDER TEST: American firefly luciferase (Photinus pyralis, UniProt P08659)
# Construct: recombinant luciferase
# Sequence (P08659 whole entry): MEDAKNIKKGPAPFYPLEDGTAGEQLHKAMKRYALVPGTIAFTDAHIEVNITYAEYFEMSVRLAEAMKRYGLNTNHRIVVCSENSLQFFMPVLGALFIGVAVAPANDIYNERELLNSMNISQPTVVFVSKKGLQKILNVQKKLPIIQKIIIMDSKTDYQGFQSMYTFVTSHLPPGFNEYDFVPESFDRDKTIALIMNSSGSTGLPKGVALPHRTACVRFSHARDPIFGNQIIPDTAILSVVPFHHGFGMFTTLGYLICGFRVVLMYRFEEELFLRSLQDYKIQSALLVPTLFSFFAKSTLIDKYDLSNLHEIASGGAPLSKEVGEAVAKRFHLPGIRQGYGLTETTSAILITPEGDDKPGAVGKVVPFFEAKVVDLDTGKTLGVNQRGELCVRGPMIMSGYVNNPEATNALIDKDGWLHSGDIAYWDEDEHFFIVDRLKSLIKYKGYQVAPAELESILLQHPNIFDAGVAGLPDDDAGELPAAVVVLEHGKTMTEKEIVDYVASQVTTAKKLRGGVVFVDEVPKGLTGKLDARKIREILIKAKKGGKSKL
# METHOD DESCRIPTION: stopped-flow inhibition of initial ATP-induced light output; photolabeling with LC-MSMS also done
# Assay type: biochemical
TEST READOUT: pIC50
As a rule, pIC50 stands for the negative log10 of the concentration, concentration in M.

Task item: Need pIC50, item CCCCCC1(CCO)N=N1 [3-azioctanol, 3-(2-hydroxyethyl)-3-n-pentyldiazirine]
Reply: 3.70
